Measured IC50 by item
# Protocol: Cytotoxicity assay against human cancer cell line MCF-7
# Assay type: cell-based
# Condition set: MCF-7 cells

# Compound string, Measurement name, Obs value
rows = [
    ("COc1ccc(-c2cc3c(c(=O)o2)C(C)(C)[C@H](C)O3)cc1OC", "IC50", "> 40 µM"),
]

For the next question, use this compound.
IN: IC50 for `COc1cc(-c2cc3c(c(=O)o2)C(C)(C)[C@H](C)O3)ccc1O` ?
OUT: > 40 µM

====

# Protocol: Cytotoxicity assay against human cancer cell line SMMC-7721
# Type: cell-based
# Condition set: SMMC-7721 cells
pIC50: −log10 of the molar value.
Measurement name: pIC50

# Compound string, pIC50
measured = [
    ("COc1cc(-c2cc3c(c(=O)o2)C(C)(C)[C@H](C)O3)ccc1O", "< 4.40"),
]

For the next question, use this compound.
IN: pIC50 for `COc1ccc(-c2cc3c(c(=O)o2)C(C)(C)[C@H](C)O3)cc1OC` ?
OUT: < 4.40
